method.notes: in vitro
condition.notes: dog
measurement.name: CC50 at 3 days

// known answers, use as guide
Cc1ccc2c(=O)[nH]c(-c3c(C)cccc3C)cc2c1 ... > 300 µM
Cc1cccc(-c2cc3c(N(C)C)cccc3c(=O)[nH]2)c1 ... > 300 µM
CN(C)c1cccc2c(=O)[nH]c(-c3ccc(Br)cc3)cc12 ... > 300 µM
Cc1ccc(-c2cc3c(N(C)C)cccc3c(=O)[nH]2)cc1 ... > 300 µM
COc1cc2cc(-c3cccc(C)c3)[nH]c(=O)c2cc1OC ... > 300 µM

Request the reported CC50 at 3 days associated with `COc1ccc2cc(-c3cc4c(cc3CCO)OCO4)[nH]c(=O)c2c1OC`
> 300 µM

----------
Tested on: B/Lee/40 (Lee)
method.notes: microbe, parasite or virus in culture
Type: cell-based, influenza B virus
condition.notes: unidentified influenza virus, MDCK, read-out: EC50 against Influenza Virus Lee
Counter-ions that a name gives are not always drawn.
Reported EC50 by item:

// known answers, use as guide
COc1cc2cc(-c3cccc(C)c3)[nH]c(=O)c2cc1OC [Compound 23] ... > 300 µM
NC12CC3CC(CC(C3)C1)C2 [AMT, amantadine hydrochloride, reference compound] ... > 300 µM
Cn1c(-c2ccccc2C=O)cc2ccccc2c1=O [Compound 15] ... > 300 µM
Cn1c(-c2ccccc2O)c(C=O)c2ccccc2c1=O [Compound 16] ... > 148 µM

Request the reported EC50 associated with COc1ccc(-c2[nH]c(=O)c3ccc(C)cc3c2Br)cc1OC [Compound 13]
> 300 µM

----------
Reported CC50 at 3 days by item:
method.notes: in vitro
condition.notes: dog

O=c1[nH]c(-c2ccccc2CO)cc2ccccc12 ... > 300 µM

Request the reported CC50 at 3 days associated with `COc1ccc(-c2cc3cc(C)ccc3c(=O)[nH]2)cc1OC`
> 300 µM

----------
Reported CC50 at 3 days by item:
method.notes: in vitro
condition.notes: dog

// known answers, use as guide
CCC(CC)O[C@@H]1C=C(C(=O)O)C[C@H](N)[C@H]1NC(C)=O [OSV-C, oseltamivir carboxylate, reference compound] ... > 300 µM
CN(C)c1cccc2c(=O)[nH]c(-c3ccc(Cl)cc3)cc12 ... > 300 µM
COc1cc2cc(-c3ccccc3)[nH]c(=O)c2cc1OC ... > 300 µM

Request the reported CC50 at 3 days associated with `COc1cc2cc(-c3ccccc3O)[nH]c(=O)c2cc1OC`
> 300 µM

Request the reported CC50 at 3 days associated with `C=Cc1cc2c(cc1-c1cc3ccc(OC)c(OC)c3c(=O)n1C)OCO2`
40.3 µM

Request the reported CC50 at 3 days associated with `O=c1[nH]c(-c2ccccc2O)cc2ccccc12`
> 300 µM

Request the reported CC50 at 3 days associated with `COc1ccc(-c2[nH]c(=O)c3ccc(C)cc3c2Br)cc1OC`
> 300 µM

----------
method.notes: in vitro
condition.notes: dog
Reported CC50 at 3 days by item:
Provide the reading as a plain figure in µM.

Request the reported CC50 at 3 days associated with `Cn1c(-c2ccccc2O)c(C=O)c2ccccc2c1=O`
148

Request the reported CC50 at 3 days associated with `CCc1cc2c(cc1-c1cc3ccc(OC)c(O)c3c(=O)n1C)OCO2`
109

Request the reported CC50 at 3 days associated with `CCc1cc2c(cc1-c1cc3ccc(OC)c(OC)c3c(=O)n1C)OCO2`
39

Request the reported CC50 at 3 days associated with `COc1ccccc1-c1cc2ccccc2c(=O)[nH]1`
120
